system: Beta-ketoacyl-[acyl-carrier-protein] synthase III (Streptococcus pyogenes serotype M3 (strain ATCC BAA-595 / MGAS315), UniProt P0DB00)
Sequence (P0DB00 whole entry): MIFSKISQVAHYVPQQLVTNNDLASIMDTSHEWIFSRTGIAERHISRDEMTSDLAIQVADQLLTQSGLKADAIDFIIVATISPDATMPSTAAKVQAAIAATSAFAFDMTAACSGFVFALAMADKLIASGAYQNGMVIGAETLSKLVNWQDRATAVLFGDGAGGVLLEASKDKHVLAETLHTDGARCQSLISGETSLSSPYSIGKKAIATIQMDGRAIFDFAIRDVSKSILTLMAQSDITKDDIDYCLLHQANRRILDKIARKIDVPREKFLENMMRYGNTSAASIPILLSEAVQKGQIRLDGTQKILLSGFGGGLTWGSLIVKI
measurement notes: Inhibitory concentration against Streptococcus pyogenes beta-Ketoacyl-acyl carrier protein synthase III
pIC50: −log10 of the molar value.
Reported pIC50 values for the following molecules.
recorded metric: pIC50

smiles notation | observed result
O=C(Nc1ccccc1C(=O)O)c1ccc(-c2ccccc2)c(Oc2ccccc2)c1 | 7.30
O=C(Nc1cccc(O)c1C(=O)O)c1ccc(Br)c(Oc2ccccc2)c1 | 7.47
CS(=O)(=O)c1ccc(-c2ccc(C(=O)Nc3ccccc3C(=O)O)cc2Oc2ccccc2)cc1 | 8.52
O=C(Nc1cccc(O)c1C(=O)O)c1ccc(-c2ccccc2)c(Oc2ccccc2)c1 | 8.40

----------
system: Beta-ketoacyl-[acyl-carrier-protein] synthase III (Staphylococcus aureus subsp. aureus Mu50, UniProt P68795)
Sequence (P68795 whole entry): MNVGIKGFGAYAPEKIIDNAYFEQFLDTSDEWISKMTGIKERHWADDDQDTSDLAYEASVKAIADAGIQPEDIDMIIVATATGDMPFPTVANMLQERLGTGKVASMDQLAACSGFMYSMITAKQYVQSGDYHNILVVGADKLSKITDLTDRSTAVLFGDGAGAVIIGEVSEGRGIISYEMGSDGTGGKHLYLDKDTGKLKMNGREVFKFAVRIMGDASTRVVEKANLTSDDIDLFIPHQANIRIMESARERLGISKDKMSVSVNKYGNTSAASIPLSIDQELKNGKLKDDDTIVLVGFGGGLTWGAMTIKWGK

smiles notation | IC50
O=C(Nc1cccc(O)c1C(=O)O)c1ccc(-c2ccccc2)c(Oc2ccccc2)c1 | 3.8 µM
O=C(Nc1ccccc1C(=O)O)c1ccc(-c2ccccc2)c(Oc2ccccc2)c1 | 10 µM
O=C(Nc1cccc(O)c1C(=O)O)c1ccc(Br)c(Oc2ccccc2)c1 | 12.3 µM
CS(=O)(=O)c1ccc(-c2ccc(C(=O)Nc3ccccc3C(=O)O)cc2Oc2ccccc2)cc1 | 24 µM

----------
system: Beta-ketoacyl-[acyl-carrier-protein] synthase III (Enterococcus faecalis (strain ATCC 700802 / V583))
Sequence (Q820T1 whole entry): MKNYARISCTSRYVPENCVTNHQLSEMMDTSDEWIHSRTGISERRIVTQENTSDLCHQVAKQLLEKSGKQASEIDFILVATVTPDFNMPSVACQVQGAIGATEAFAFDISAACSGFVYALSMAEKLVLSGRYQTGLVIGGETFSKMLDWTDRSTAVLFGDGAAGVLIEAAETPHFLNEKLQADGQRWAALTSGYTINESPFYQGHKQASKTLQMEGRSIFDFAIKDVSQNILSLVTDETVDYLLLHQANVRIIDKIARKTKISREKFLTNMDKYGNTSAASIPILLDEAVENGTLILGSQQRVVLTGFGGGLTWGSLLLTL
measurement notes: Inhibitory concentration against Enterococcus faecalis beta-Ketoacyl-acyl carrier protein synthase III
pIC50: −log10 of the molar value.
Class definitions on pIC50: range 1 = under 5, range 2 = from 5 up to 6, range 3 = 6 and over

compound | answer label
O=C(Nc1ccccc1C(=O)O)c1ccc(N2CCCCC2)c(Oc2ccccc2)c1 | range 3
O=C(Nc1ccccc1C(=O)O)c1ccc(-c2ccc(C(F)(F)F)cc2)c(Oc2ccccc2)c1 | range 3
O=C(Nc1ccccc1C(=O)O)c1ccc(-c2cccnc2)c(Oc2ccccc2)c1 | range 3
O=C(Nc1ncccc1C(=O)O)c1cccc(Oc2ccccc2)c1 | range 1
O=C(Nc1ccccc1C(=O)O)c1ccc(-c2ccccc2)c(Oc2ccccc2)c1 | range 3
CCN(CC)S(=O)(=O)c1cc(C(=O)Nc2ccccc2C(=O)O)cc(C)c1Br | range 1
CCN(CC)S(=O)(=O)c1cc(C(=O)Nc2ccccc2C(=O)O)ccc1N1CCCCC1 | range 2
Cc1cc(-c2ccc(C(=O)Nc3ccccc3C(=O)O)cc2Oc2ccccc2)ccc1F | range 3
CCN(CC)S(=O)(=O)c1cc(C(=O)Nc2ccccc2C(=O)O)ccc1Oc1ccccc1 | range 2
O=C(Nc1ccccc1C(=O)O)c1ccc(F)c(Oc2ccccc2)c1 | range 2
O=C(O)c1ccc(-c2ccc(C(=O)Nc3ccccc3C(=O)O)cc2Oc2ccccc2)cc1 | range 2
O=C(Nc1cccc(F)c1C(=O)O)c1cccc(Oc2ccccc2)c1 | range 2
O=C(Nc1cccnc1C(=O)O)c1cccc(Oc2ccccc2)c1 | range 1
Cc1cc(-c2ccc(C(=O)Nc3ccccc3C(=O)O)cc2Oc2ccccc2)ccc1Cl | range 3
CS(=O)(=O)c1ccc(-c2ccc(C(=O)Nc3ccccc3C(=O)O)cc2Oc2ccccc2)cc1 | range 3
O=C(Nc1cccc(O)c1C(=O)O)c1ccc(-c2ccccc2)c(Oc2ccccc2)c1 | range 3
CN1CCN(c2ccc(C(=O)Nc3ccccc3C(=O)O)cc2Oc2ccccc2)CC1 | range 1
O=C(Nc1cccc(O)c1C(=O)O)c1cccc(Oc2ccccc2)c1 | range 3
O=C(Nc1ccccc1C(=O)O)c1ccc(-c2ccc(F)cc2F)c(Oc2ccccc2)c1 | range 3
CCOc1ccc(-c2ccc(C(=O)Nc3ccccc3C(=O)O)cc2Oc2ccccc2)cc1 | range 3
O=C(Nc1ccccc1C(=O)O)c1ccc(-c2ccc(O)cc2)c(Oc2ccccc2)c1 | range 3
Cc1ccc(-c2ccc(C(=O)Nc3ccccc3C(=O)O)cc2Oc2ccccc2)cc1 | range 3
O=C(Nc1ccccc1C(=O)O)c1ccc(N2CCOCC2)c(Oc2ccccc2)c1 | range 2
CCN(CC)S(=O)(=O)c1cc(C(=O)Nc2ccccc2C(=O)O)ccc1OCC1CCCC1 | range 2
CC1CC(C)CN(c2ccc(C(=O)Nc3ccccc3C(=O)O)cc2Oc2ccccc2)C1 (stereo unspecified) | range 3
O=C(O)c1cccc(Oc2cccc(C(=O)Nc3ccccc3C(=O)O)c2)c1 | range 2
O=C(Nc1ccccc1C(=O)O)c1ccc(N2CCNCC2)c(Oc2ccccc2)c1 | range 1
O=C(Nc1ccccc1C(=O)O)c1ccc(-c2ccc(F)c(F)c2)c(Oc2ccccc2)c1 | range 3
O=C(Nc1ccccc1C(=O)O)c1ccc(-c2cn[nH]c2)c(Oc2ccccc2)c1 | range 1
CCN(CC)S(=O)(=O)c1cc(C(=O)Nc2ccccc2C(=O)O)ccc1Br | range 2
O=C(Nc1ccccc1C(=O)O)c1ccc(-c2ccc(F)c(Cl)c2)c(Oc2ccccc2)c1 | range 3
O=C(Nc1ccccc1C(=O)O)c1cccc(Oc2ccc(F)cc2)c1 | range 2
O=C(Nc1sccc1C(=O)O)c1cccc(Oc2ccccc2)c1 | range 1
O=C(Nc1cccc(O)c1C(=O)O)c1ccc(Br)c(Oc2ccccc2)c1 | range 3
